Assay: NCI Yeast Anticancer Drug Screen. Data for the rad50EPP+ strain (AID 151);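 note: 0% = growth of vehicle-treated control cultures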
Conditions: S. cerevisiae rad50 mutant strain, at 100.0 µM
The panel holds about 79,000 compounds, 15% with a hit somewhere; the sample as a whole holds those more often. Calls of active or inactive are those of the source. Cut-off read from the data, not from the text of the source: active = growth inhibition above about 70%; inactive = the rest.
Your answer must be one of the following: True for active, False for inactive

Lookup: Assay result, entry CC(O)=NC(Cc1ccc2ccccc2c1)C(O)=NC(Cc1ccc(Cl)cc1)C(O)=NC(Cc1c[nH]c2ccccc12)C(O)=NC(CO)C(O)=NC(Cc1ccc(O)cc1)C(O)=NC(CCCN=C(N)N)C(O)=NC(CC(C)C)C(O)=NC(CCCN=C(N)N)C(=O)N1CCCC1C(O)=NC(C)C(=N)O (stereo unspecified) — outcome?
Found: False

Lookup: Assay result, entry COc1ccc(C2C3=C(COC3=O)OC(C)(C)Oc3cc4c(cc32)OCO4)cc1OC (stereo unspecified) — outcome?
Found: False

###

Test: NCI Yeast Anticancer Drug Screen. Data for the mec2-1 strain (AID 157)
Details: S. cerevisiae mec2-1 strain, at 3.7 µM, stronger effect = higher value
The panel holds about 79,000 compounds, 15% with a hit somewhere; the sample as a whole holds those more often.
MEASURED ATTRIBUTE: growth inhibition (%)
Use % as the unit, but write only the number.

Here are 2 compounds together with their reported answers.
# COMPOUND, UNIT NAME, growth inhibition
data = [
    ("CCC(C)NC1=NCC(C)S1 (stereo not drawn)", "%", -48),
    ("O=C1NC(SSC2=NNC3(C(=O)N2)c2ccccc2-c2ccccc23)=NNC12c1ccccc1-c1ccccc12", "%", 2),
]

Lookup: Consider the compound `COc1ccc(N=CN(C)C)c(C)c1` . State its measured growth inhibition.
Found: -70

###

Assay: NCI Yeast Anticancer Drug Screen. Data for the cln2 rad14 strain (AID 165);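 note: 0% = growth equal to vehicle treated cultures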
Details: S. cerevisiae cln2 rad14 strain, at 50.0 µM, stronger effect = higher value
About 79,000 compounds went through this panel and 15% of them were active in at least one assay; those are over-represented in the sample as a whole.
Classification by growth inhibition follows these ranges: lowest: < 40%; middle: ≥ 40% and < 80%; highest: ≥ 80%

Would you please look over these solved cases?
# COMPOUND, LABEL
measured = [
    ("CCc1c[n+]([O-])c(C)cc1[N+](=O)[O-]", "highest"),
    ("C[CH2][Sn]([CH2]C)([O]C(=O)C(N)Cc1ccccc1)[O]C(=O)C(N)Cc1ccccc1 (stereo not given)", "middle"),
    ("CCOc1c(N=Nc2ccccc2OC)c(C)nn1C(=S)S", "highest"),
]

Lookup: Given `COc1cc2ccnc(-c3c4ccccc4c(N)c4c(OC)c(OC)ccc34)c2cc1OC` , name the class its growth inhibition places it in.
Found: lowest

Lookup: Given `CC(C)(C)CC(C)(C)c1cc(O)c(O)c(CN2CCCCC2)c1` , name the class its growth inhibition places it in.
Found: middle

Lookup: Given CCOC(=O)C(Br)C(Br)c1ccccc1Cl (stereo not given) , name the class its growth inhibition places it in.
Found: highest

###

Reported values of growth inhibition for individual entries
Assay: NCI Yeast Anticancer Drug Screen. Data for the rad50 strain (AID 155);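 note: 0% = growth of vehicle-only cultures of the same strain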
Conditions: S. cerevisiae rad50 strain growth inhibition; at 5.0 µM (retest, dose inferred, filed as 0.5); stronger effect = higher value
Protocol: Growth inhibition of yeast strains with defined genetic alterations is measured as a screen for potential anti-cancer activity. Selected strains with alterations in DNA damage repair or cell cycle control were exposed to compounds and growth inhibition was measured relative to vehicle treated controls. The strain used in this assay is rad50
The panel holds about 79,000 compounds, 15% with a hit somewhere; the sample as a whole holds those more often.
Use % as the unit, but write only the number.

Here are 5 compounds together with their reported answers.
# COMPOUND, UNIT NAME, growth inhibition
records = [
    ("CCCCCCCCCCCC1N=C(N)NC(CCCO)=C1C(=O)OC (stereo not given)", "%", 28),
    ("Cc1c(C(C)C)cc(OCCO)cc1C(C)C", "%", -8),
    ("CCCCOCn1c(=O)[nH]c(=O)c2cc(Br)ccc21", "%", 21),
    ("Cc1nc(Nc2ccccc2[N+](=O)[O-])sc1C(=O)CC(=O)C(=O)Nc1c(C(C)C)cccc1C(C)C", "%", 10),
    ("O=[N+]([O-])/C=C/c1cc(Cl)c(/C=C/[N+](=O)[O-])cc1Cl", "%", 3),
]

Lookup: Consider the compound `N#CC(=Nc1ccccc1F)Nc1ccccc1F` . State its measured growth inhibition.
Found: -6

Lookup: Consider the compound CCOC(=O)[C@H]1Nc2ccc(OC)cc2C2c3ccccc3CC21 (stereo not given in full) . State its measured growth inhibition.
Found: 19

Lookup: Consider the compound `Cc1cc(O)c(C(C)C)cc1C1(c2cc(C(C)C)c(O)cc2C)OC(=O)c2ccccc21` . State its measured growth inhibition.
Found: 17

Lookup: Consider the compound CCC(C)NC1=NCC(C)S1 (stereo not given) . State its measured growth inhibition.
Found: 44

Lookup: Consider the compound `CCn1c(O)c(C=Nc2ccccc2)s/c1=N/Nc1nc(-c2ccccc2)cs1` . State its measured growth inhibition.
Found: -12

All values here come from PubChem BioAssay (NCI).
